Experiment: protein stability index of a GFP-peptide fusion (GPS, HEK-293T) (PSI 1-6); higher = more stable;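 further: 24-mer peptide tiles fused after GFP, lentivirally expressed, FACS-sorted into six equal bins by GFP/DsRed ratio, decoded by Illumina sequencing, PSI is the read-weighted mean bin number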
Conditions: treatment: MLN4924 1 uM, 8 h; c terminus: a fixed tail appended
Assay Metric: protein stability index

1. PLTGDKDDEEVDTHFASQEFFSAN [ADAMTSL2]    5.45
2. GDNPYMYPEQSKGFHKAGSMLPPV [SPATS1]    3.35
3. TLMEEVLLLGLKDREGYTSFWNDC [GOLPH3]    2.72
4. KFLMARKFDVLRAIELFHSYRETR [PTPN9]    2.15
5. YGSFHQQYWLDGKIIAVGVIDILP [ATE1]    3.16
6. VARVLRGCLENMPEADCIPKEQLS [PLK2]    3.62
7. KAAVSHWQQQSYLDSGIHSGATTT [CTNNB1]    3.78
8. TPMTIPEFFRESVNRFGTYPALAS [ACSBG2]    2.78
9. ILKRRYYRQHCTLELGSYIKDLSV [CTDNEP1]    2.25
10. AKAELPKYKSFNRTAMPYGGYEKA [MYOZ1]    3.41
11. TSAITASRSESPPPLSDPKQAKVV [BRD3]    5.21
12. QVDPGTDLEPGVLMSAQTITSETT [EPB41L3]    5.16
13. LYPAVSAVWGQCQVRIRYLGERRA [SPSB2]    2.62
14. QILKDTKSITSAMNELQHDLDVVS [TPH1]    3.97
15. LTELVQRRITYLQNPKDCSKAKKL [FUT8]    4.08
16. VEYKDIASIHWDWKIALLFVAFAL [SLC35F2]    2.74
17. ADLENEDIFPELDDILYHVKGMQR [DLC1]    3.72
18. PRVRELLLDALSPEQLVLTLLEAE [ESR2]    2.22
19. RTKVVKPYSTVDNPVYYGPSDFFI [EFHC1]    2.42
20. LATFSSDWEIQEDSRLMCSSVQKA [CCDC3]    3.9
21. LAQQLCTALLFLATPELSIIHCDL [DYRK1B]    3.23
22. TECEGDIQKNYECANFGDQGITMG [LOXL2]    5.04
23. SQKGCLALSLLELLGFNLTFVFLA [CLCN6]    3.03
24. VWKYFGFDTNAEGCILQWKKIYCR [ZBED1]    2.2
25. CGGYNGEVILGDIWKLNLQTFQWV [KLHDC10]    2.11
26. EETTSQDWGTPRELTFSYIAFDGV [RTN2]    2.8
27. GLWSRISHLVLPVQPVSSIEEQGC [TOR1AIP2]    2.64

----------
Test: protein stability index of a GFP-peptide fusion (GPS, HEK-293T) (PSI 1-6); higher = more stable
Conditions: treatment: DMSO; c terminus: a fixed tail appended
Answer Not fulfilled if protein stability index is under 4, and Fulfilled if it is 4 or more.

1. SMAAVPTLELCHDELFADLFNSNH [CEBPD]    Not fulfilled
2. EKKDTITNDSLSLKPSWFDFGFAI [MIA2]    Not fulfilled
3. IASFIRGPNPSKLIQQFLTLRPDQ [CDS2]    Not fulfilled
4. FVVGNCLQIASDSHQYDRIYCGAG [PCMTD1]    Not fulfilled
5. GQAEEELIKAKSQARLEEQQRLAH [LRRC45]    Fulfilled

----------
Assay: protein stability index of a GFP-peptide fusion (GPS, HEK-293T) (PSI 1-6); higher = more stable
Settings: treatment: MLN4924 1 uM, 8 h; c terminus: a fixed tail appended
Please mark True if the recorded protein stability index is equal to or greater than 3, and False if it falls below.

1. EVITAAEFHPHHCNTFVYSSSKGT [PPP2R2B]    True
2. KLAVFMWLMTYVGAVFNGITLLIL [RTN3]    True
3. CSSSNLAGNDDSFGSLPSPKELSS [DLC1]    True
4. KQLISQTKKKQWCYNCEEEAMYHC [ZMYND11]    True
5. SWAWRGPGVLKVLWLTASQPCSIV [LPCAT4]    False
6. VGDLMSPFDQSGLGAEESLGLLDD [ATF4]    True
7. GYRCFVCPVEYNNDTNSFTVDCEP [CDS2]    False
8. SKNGNGLKNTPRFKRRRVRRRRME [PCMTD2]    True
9. GQAEEELIKAKSQARLEEQQRLAH [LRRC45]    True
10. TIVSCTPVHLVDKLPLPSTLRSHL [RAB40A]    False
11. YQQQHEQQKKDLEILHQQNIHQLQ [SASS6]    True
12. GPVRPAIPPPLSSVYAWGGGLGTP [NEK8]    True
13. PWTKEEDQKVIELVKKYGTKQWTL [MYBL2]    False
14. TNVESQLAEIRSDLERQNQEYQVL [KRT33B]    True
15. EDRKLPAPGADVKVHRARKTMPKS [EHMT1]    True
16. LQGLIPGARYEVTVVSVRGFEESE [TNXB]    False
17. FHAYYYCFITLTTIGFGDYVALQT [KCNK9]    True
18. QTAVQFQQYAAQQYPGNYEQQQIL [ACBD3]    True
19. WGCDLGVVTRVVTGVYPRCLHASQ [BRF1]    False
20. KQYDQQFPDGDDEFDSPHEDIVFE [STX11]    True
21. ISAEGFTDIDIDTLCAVLERDTLS [BTBD1]    False
22. MVGPLAQDPQSPMAGLRWLDSWDF [POMT2]    False
23. SVVPEMEESGAQLLLEMLTFNPHK [CDK4]    True
24. PLPPPPPAFKSMEVANFYYEADCL [CEBPB]    True
25. EEERPLPEKEYQRQVWLLFEYPES [KCNA1]    True
26. EKKDDENIPMETEETHLEETTESQ [SMARCE1]    True
27. KFADNKWSVTGKAEPAMPGRLYVH [TBX5]    False
28. NVIDRMKESSPSGSKSQRYSGAYG [CHCHD3]    True
29. GHSQPDGAYSSASSFSRPLGYPYV [DLX1]    True
30. EALRALQEGLWLDRGTRVVFIDFS [PKD2L1]    False
31. RELWLKFHEVGTEMIITKAGRRMF [TBX5]    False
32. GFSPSYEFFAVTRFLVGMMNGGMS [SLC22A15]    False
33. ALERRRRALQEEERAAAQARRELQ [ZBED3]    True
34. SDSDSELSSSEGLEPGSADPLANG [PSD2]    True
35. MAAPEERDLTQEQTEKLLQFQDLT [FAF2]    True
36. WHEIRQGRLPRIPQVLSQEFTELL [WEE1]    False
37. RDYIHSLKLLNVLEEYITDEQKEE [FAM9B]    True
38. FASDGDSGTCSPLRHSFQKQQREK [ADD1]    True
39. GLSTEAEQPFIPVEVLVDLFLKEG [PRAME]    True
40. QLNRRGEFIQEIRRQLEACQRERA [OAS1]    True
41. VRQLERENAELESRIQEWYEFQIP [KRT36]    True
42. AQLRLQLEVSQLEGSLQQPKAQSA [SMG5]    True
43. MEDKEMTGPQLPESLEDVAMYISQ [ZNF263]    True
44. SFDYEQFHELQMQVTASDSGDPPL [PCDHGA10]    True
45. KSKHAPRGTHLWEFIRDILIHPEL [ELF3]    False
46. ERWLKELRDHADSNIVIMLVGNKS [RAB11A]    False
47. VKVPGIVRLRTLLCKVLGVLFSVA [CLCN6]    False
48. HFQEAIDFIDCVREKGGKVLVHCE [DUSP5]    False

----------
Assay: protein stability index of a GFP-peptide fusion (GPS, HEK-293T) (PSI 1-6); higher = more stable
Details: treatment: DMSO; c terminus: native
Assay Metric: protein stability index

1. PTKDRLEGLLAFKEKRPPRYKGE [AUH]    2.11
2. KKVSKAAILARIKRTGDGNYKSG [SCD]    2.88
3. IYRKYRKLIESELSYFVIVYSVM [FBXO39]    2.87
4. IAMTSGTVQPKQDAFANFANFSK [CLINT1]    4.22
5. TASLLLCPGGLDHKLNLRGKAWG [TIAF1]    2.98
6. SSYVASIVDGGESRSEKGDSSRY [RBMY1A1]    4.35
7. ARVKPPEGYDVVAVYPNAKVELV [PDLIM4]    3.52
8. RERLGEIHTLPLPASLKAYLLYQ [SPSB1]    2.3
